These entries and their values trace back to the supplement of paper PMC10567573.

B1: ZNF263 (parent)
chain: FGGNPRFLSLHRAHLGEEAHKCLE

variants of: B1; experiment: protein stability index of a GFP-peptide fusion (GPS, HEK-293T) (PSI 1-6); higher = more stable; conditions: c terminus: a fixed tail appended;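 note: lentivirally expressed fusions sorted by FACS into six bins by GFP to DsRed ratio, PSI derived from sequencing read proportions per bin multiplied by bin number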
Please enter satisfied where protein stability index is greater than or equal to 2, and not satisfied where it is lower.

### Prompt API: above_or_equal(metric=protein stability index, cutoff=2) for item H11I
### Response not satisfied

### Prompt API: above_or_equal(metric=protein stability index, cutoff=2) for item S9K
### Response not satisfied

### Prompt API: above_or_equal(metric=protein stability index, cutoff=2) for item L15F
### Response not satisfied

### Prompt API: above_or_equal(metric=protein stability index, cutoff=2) for item G3T
### Response satisfied

### Prompt API: above_or_equal(metric=protein stability index, cutoff=2) for item R12S
### Response satisfied

### Prompt API: above_or_equal(metric=protein stability index, cutoff=2) for item S9R
### Response not satisfied

### Prompt API: above_or_equal(metric=protein stability index, cutoff=2) for item K21L
### Response satisfied

### Prompt API: above_or_equal(metric=protein stability index, cutoff=2) for item G2I
### Response not satisfied

### Prompt API: above_or_equal(metric=protein stability index, cutoff=2) for item P5L
### Response not satisfied

### Prompt API: above_or_equal(metric=protein stability index, cutoff=2) for item L10H
### Response satisfied

### Prompt API: above_or_equal(metric=protein stability index, cutoff=2) for item N4K
### Response satisfied

### Prompt API: above_or_equal(metric=protein stability index, cutoff=2) for item N4M
### Response not satisfied

### Prompt API: above_or_equal(metric=protein stability index, cutoff=2) for item E24F
### Response not satisfied

### Prompt API: above_or_equal(metric=protein stability index, cutoff=2) for item L10F
### Response not satisfied

### Prompt API: above_or_equal(metric=protein stability index, cutoff=2) for item L8A
### Response satisfied

### Prompt API: above_or_equal(metric=protein stability index, cutoff=2) for item E17Q
### Response not satisfied

### Prompt API: above_or_equal(metric=protein stability index, cutoff=2) for item G2K
### Response satisfied

### Prompt API: above_or_equal(metric=protein stability index, cutoff=2) for item N4D
### Response satisfied

### Prompt API: above_or_equal(metric=protein stability index, cutoff=2) for item F7H
### Response satisfied

### Prompt API: above_or_equal(metric=protein stability index, cutoff=2) for item G16C
### Response not satisfied

### Prompt API: above_or_equal(metric=protein stability index, cutoff=2) for item L10D
### Response satisfied

### Prompt API: above_or_equal(metric=protein stability index, cutoff=2) for item R12D
### Response not satisfied

### Prompt API: above_or_equal(metric=protein stability index, cutoff=2) for item L15G
### Response not satisfied

### Prompt API: above_or_equal(metric=protein stability index, cutoff=2) for item E18K
### Response not satisfied

### Prompt API: above_or_equal(metric=protein stability index, cutoff=2) for item C22P
### Response satisfied

### Prompt API: above_or_equal(metric=protein stability index, cutoff=2) for item N4C
### Response not satisfied

### Prompt API: above_or_equal(metric=protein stability index, cutoff=2) for item L10Y
### Response satisfied

### Prompt API: above_or_equal(metric=protein stability index, cutoff=2) for item E24I
### Response not satisfied

### Prompt API: above_or_equal(metric=protein stability index, cutoff=2) for item L23Y
### Response not satisfied

### Prompt API: above_or_equal(metric=protein stability index, cutoff=2) for item L15E
### Response not satisfied

### Prompt API: above_or_equal(metric=protein stability index, cutoff=2) for item E17G
### Response not satisfied

### Prompt API: above_or_equal(metric=protein stability index, cutoff=2) for item G3P
### Response satisfied

### Prompt API: above_or_equal(metric=protein stability index, cutoff=2) for item C22A
### Response not satisfied

### Prompt API: above_or_equal(metric=protein stability index, cutoff=2) for item P5T
### Response satisfied

### Prompt API: above_or_equal(metric=protein stability index, cutoff=2) for item R6W
### Response satisfied

### Prompt API: above_or_equal(metric=protein stability index, cutoff=2) for item A13Q
### Response not satisfied

### Prompt API: above_or_equal(metric=protein stability index, cutoff=2) for item E24H
### Response not satisfied

### Prompt API: above_or_equal(metric=protein stability index, cutoff=2) for item L15N
### Response not satisfied

### Prompt API: above_or_equal(metric=protein stability index, cutoff=2) for item N4P
### Response satisfied

### Prompt API: above_or_equal(metric=protein stability index, cutoff=2) for item C22L
### Response not satisfied

### Prompt API: above_or_equal(metric=protein stability index, cutoff=2) for item E18G
### Response not satisfied

### Prompt API: above_or_equal(metric=protein stability index, cutoff=2) for item C22R
### Response not satisfied

### Prompt API: above_or_equal(metric=protein stability index, cutoff=2) for item L8K
### Response satisfied

### Prompt API: above_or_equal(metric=protein stability index, cutoff=2) for item A13P
### Response not satisfied

### Prompt API: above_or_equal(metric=protein stability index, cutoff=2) for item H14M
### Response not satisfied

### Prompt API: above_or_equal(metric=protein stability index, cutoff=2) for item L8Y
### Response satisfied

### Prompt API: above_or_equal(metric=protein stability index, cutoff=2) for item L8G
### Response satisfied

### Prompt API: above_or_equal(metric=protein stability index, cutoff=2) for item F1H
### Response satisfied

### Prompt API: above_or_equal(metric=protein stability index, cutoff=2) for item A19F
### Response not satisfied

### Prompt API: above_or_equal(metric=protein stability index, cutoff=2) for item H14T
### Response satisfied

### Prompt API: above_or_equal(metric=protein stability index, cutoff=2) for item R6P
### Response satisfied

### Prompt API: above_or_equal(metric=protein stability index, cutoff=2) for item L23N
### Response satisfied

### Prompt API: above_or_equal(metric=protein stability index, cutoff=2) for item G16P
### Response satisfied

### Prompt API: above_or_equal(metric=protein stability index, cutoff=2) for item A19L
### Response not satisfied

### Prompt API: above_or_equal(metric=protein stability index, cutoff=2) for item H11Q
### Response not satisfied

### Prompt API: above_or_equal(metric=protein stability index, cutoff=2) for item A13M
### Response satisfied

### Prompt API: above_or_equal(metric=protein stability index, cutoff=2) for item K21A
### Response not satisfied

### Prompt API: above_or_equal(metric=protein stability index, cutoff=2) for item K21I
### Response satisfied

### Prompt API: above_or_equal(metric=protein stability index, cutoff=2) for item H20G
### Response not satisfied

### Prompt API: above_or_equal(metric=protein stability index, cutoff=2) for item E17R
### Response not satisfied

### Prompt API: above_or_equal(metric=protein stability index, cutoff=2) for item G2S
### Response not satisfied

### Prompt API: above_or_equal(metric=protein stability index, cutoff=2) for item A13K
### Response not satisfied

### Prompt API: above_or_equal(metric=protein stability index, cutoff=2) for item L10I
### Response satisfied

### Prompt API: above_or_equal(metric=protein stability index, cutoff=2) for item F7T
### Response satisfied

### Prompt API: above_or_equal(metric=protein stability index, cutoff=2) for item R6S
### Response not satisfied
